- Study Target: GRK6, recombinant full-length GST-tagged human protein (Homo sapiens, UniProt P43250)
- Construct: GRK6, recombinant full-length GST-tagged human protein; GST
- Sequence (P43250 whole entry): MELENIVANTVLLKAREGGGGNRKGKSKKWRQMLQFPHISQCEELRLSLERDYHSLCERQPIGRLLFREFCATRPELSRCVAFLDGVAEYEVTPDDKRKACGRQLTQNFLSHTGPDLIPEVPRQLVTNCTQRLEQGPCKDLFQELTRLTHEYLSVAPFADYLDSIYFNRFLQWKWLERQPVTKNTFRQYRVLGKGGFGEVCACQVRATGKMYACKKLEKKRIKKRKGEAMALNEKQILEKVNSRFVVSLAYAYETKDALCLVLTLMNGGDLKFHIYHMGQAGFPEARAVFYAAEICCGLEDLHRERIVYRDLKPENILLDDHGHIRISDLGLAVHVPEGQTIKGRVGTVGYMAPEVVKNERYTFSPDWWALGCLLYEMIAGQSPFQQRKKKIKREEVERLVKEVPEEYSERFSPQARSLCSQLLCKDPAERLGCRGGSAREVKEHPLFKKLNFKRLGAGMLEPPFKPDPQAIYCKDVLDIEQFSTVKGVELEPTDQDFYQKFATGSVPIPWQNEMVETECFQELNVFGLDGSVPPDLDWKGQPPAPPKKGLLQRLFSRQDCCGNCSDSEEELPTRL
- Protocol Summary: GRK6 IC50 determination (8-point concentration-response)
- Format: biochemical
pIC50: −log10 of the molar value.
Quick list: pIC50 per entry.
Readout Name: pIC50

molecule="O=C(O)CSc1nnc(-c2ccc(OCc3ccccc3)c([N+](=O)[O-])c2)[nH]1 [Compound 86]" study_target="GRK6, recombinant full-length GST-tagged human protein (Homo sapiens, UniProt P43250)" measured_result=6.03
molecule="O=C(O)CSc1nnc(-c2cc(-c3cc(Cl)c4ccccc4c3)cc([N+](=O)[O-])c2)[nH]1 [Compound 233]" study_target="GRK6, recombinant full-length GST-tagged human protein (Homo sapiens, UniProt P43250)" measured_result=6.68
molecule="Cc1cccc(-c2nnc(SCC(=O)O)[nH]2)c1 [Compound 156]" study_target="GRK6, recombinant full-length GST-tagged human protein (Homo sapiens, UniProt P43250)" measured_result=4.84
molecule="Cc1ccc(-c2cc(-c3ccc4ccccc4c3)cc(-c3nnc(SCC(=O)O)[nH]3)c2)o1 [Compound 63]" study_target="GRK6, recombinant full-length GST-tagged human protein (Homo sapiens, UniProt P43250)" measured_result=6.08

----------
Quick list: IC50 per entry.
- Study Target: GRK6, recombinant full-length GST-tagged human protein (Homo sapiens, UniProt P43250)
- Construct: GRK6, recombinant full-length GST-tagged human protein; GST
- Protocol Summary: GRK6 IC50 determination (8-point concentration-response)
- Type: biochemical
Readout Name: IC50 (nM)

query_smiles=O=C(O)CSc1nnc(-c2cc(C(=O)NCc3cccnc3)cc([N+](=O)[O-])c2)[nH]1 readout_name=IC50 units_of_measure=nM comparison_symbol== measured_result=4780
query_smiles=O=C(O)CSc1nnc(-c2cc(NC(=O)c3ccoc3)cc(-c3ccc4ccccc4c3)c2)[nH]1 readout_name=IC50 units_of_measure=nM comparison_symbol== measured_result=1310
query_smiles=CC(C)Oc1ccc(-c2nnc(SCC(=O)O)n2CC(=O)O)cc1[N+](=O)[O-] readout_name=IC50 units_of_measure=nM comparison_symbol=> measured_result=200000
query_smiles=O=C(O)CSc1nnc(-c2cc(-c3ccoc3)cc(-c3ccc4ccccc4c3)c2)[nH]1 readout_name=IC50 units_of_measure=nM comparison_symbol== measured_result=686
query_smiles=O=C(O)CSc1nnc(-c2cccc(C(=O)Nc3cccc(Cl)c3)c2)[nH]1 readout_name=IC50 units_of_measure=nM comparison_symbol== measured_result=7920
query_smiles=O=C(O)CSc1nnc(-c2cc(-c3ccc(C(F)(F)F)nc3)cc(-c3ccc4ccccc4c3)c2)[nH]1 readout_name=IC50 units_of_measure=nM comparison_symbol== measured_result=2730
query_smiles=COc1ncccc1-c1cc(-c2ccc3ccccc3c2)cc(-c2nnc(SCC(=O)O)[nH]2)c1 readout_name=IC50 units_of_measure=nM comparison_symbol== measured_result=1580
query_smiles=O=C(O)CSc1nnc(-c2cc(-c3cncc(F)c3)cc(-c3ccc4ccccc4c3)c2)[nH]1 readout_name=IC50 units_of_measure=nM comparison_symbol== measured_result=631
query_smiles=COc1cc(-c2nnc(SCC(=O)O)[nH]2)cc(C)c1O readout_name=IC50 units_of_measure=nM comparison_symbol== measured_result=3300
query_smiles=O=C(O)CSc1nnc(-c2cc(-c3ccncc3)cc(-c3ccc4ccccc4c3)c2)[nH]1 readout_name=IC50 units_of_measure=nM comparison_symbol== measured_result=1860
query_smiles=CCCn1ccc2cc(-c3cc(-c4nnc(SCC(=O)O)[nH]4)cc([N+](=O)[O-])c3)ccc21 readout_name=IC50 units_of_measure=nM comparison_symbol== measured_result=227
query_smiles=O=C(O)CSc1nnc(-c2cccc(C(=O)Nc3cccc4[nH]ncc34)c2)[nH]1 readout_name=IC50 units_of_measure=nM comparison_symbol== measured_result=11400
query_smiles=O=C(O)CSc1nc(-c2cc(Br)cc(-c3ccc4ccccc4c3)c2)n[nH]1 readout_name=IC50 units_of_measure=nM comparison_symbol== measured_result=421
query_smiles=O=C(O)CSc1nnc(-c2cc(-c3cnn(CC(=O)O)c3)cc([N+](=O)[O-])c2)[nH]1 readout_name=IC50 units_of_measure=nM comparison_symbol== measured_result=2020
query_smiles=Nc1cc(-c2ccc3ccccc3c2)cc(-c2nnc(SCC(=O)O)[nH]2)c1 readout_name=IC50 units_of_measure=nM comparison_symbol== measured_result=433
query_smiles=O=C(O)CSc1nnc(-c2ccc3[nH]cnc3c2)[nH]1 readout_name=IC50 units_of_measure=nM comparison_symbol== measured_result=6450
query_smiles=Cc1cc2cc(-c3cc(-c4nnc(SCC(=O)O)[nH]4)cc([N+](=O)[O-])c3)ccc2n1C readout_name=IC50 units_of_measure=nM comparison_symbol== measured_result=267
